Test: Microsomal stability
Assay type: in vitro ADME
Details: human microsomes, RTV +
readoutName: Microsomal T1/2 Human
Kindly write the number and append the unit.

>>> print(df.to_string())
                                   compound            readoutname  assayresult
0  CC[C@H](C)CN(C[C@@H](O)[C@H](Cc1ccccc1)NC(=O)O[C@H]1CO[C@H]2OCC[C@H]21)S(=O)(=O)c1ccc(N)cc1 [10a]  Microsomal T1/2 Human       1.65 h

Report Microsomal T1/2 Human for each item below.
1. CCC(CC)CN(C[C@@H](O)[C@H](Cc1ccccc1)NC(=O)O[C@H]1CO[C@H]2OCC[C@H]21)S(=O)(=O)c1ccc(CO)cc1 [11c]
2. CC[C@H](C)CN(C[C@@H](O)[C@H](Cc1ccccc1)NC(=O)O[C@H]1CO[C@H]2OCC[C@H]21)S(=O)(=O)c1ccc(OC)cc1 [10b]

A:
["1.35 h", "1.83 h"]

====

Test: Microsomal stability
Type: in vitro ADME
Conditions: rat microsomes, 60 min, RTV +
Lab note: compare Microsomal Stability (Avg. % Fraction Remaining) at 60 Minutes Rat against 4%. Equal or greater, write satisfied. Smaller, write not satisfied.

These solved cases illustrate the format of a correct answer.
                                   compound  assignedclass
0  CC[C@H](C)CN(C[C@@H](O)[C@H](Cc1ccccc1)NC(=O)O[C@H]1CO[C@H]2OCC[C@H]21)S(=O)(=O)c1ccc2c(c1)OCO2 [10d]  not satisfied
1  CC[C@H](C)CN(C[C@@H](O)[C@H](Cc1ccccc1)NC(=O)O[C@H]1CO[C@H]2OCC[C@H]21)S(=O)(=O)c1ccc(OC)cc1 [10b]  not satisfied
2  CCC(CC)CN(C[C@@H](O)[C@H](Cc1ccccc1)NC(=O)O[C@H]1CO[C@H]2OCC[C@H]21)S(=O)(=O)c1ccc(OC)cc1 [11b]      satisfied

Q: Has CC[C@H](C)CN(C[C@@H](O)[C@H](Cc1ccccc1)NC(=O)O[C@H]1CO[C@H]2OCC[C@H]21)S(=O)(=O)c1ccc(N)cc1 [10a] a recorded Microsomal Stability (Avg. % Fraction Remaining) at 60 Minutes Rat greater than or equal to 4%?
A: satisfied

Q: Quick check: does CC[C@H](C)CN(C[C@@H](O)[C@H](Cc1ccccc1)NC(=O)O[C@H]1CO[C@H]2OCC[C@H]21)S(=O)(=O)c1ccc(CO)cc1 [10c] have Microsomal Stability (Avg. % Fraction Remaining) at 60 Minutes Rat greater than or equal to 4%?
A: satisfied

Q: Threshold query (Microsomal Stability (Avg. % Fraction Remaining) at 60 Minutes Rat >= 4%) on CCC(CC)CN(C[C@@H](O)[C@H](Cc1ccccc1)NC(=O)O[C@H]1CO[C@H]2OCC[C@H]21)S(=O)(=O)c1ccc(CO)cc1 [11c]
A: satisfied

====

Test: Microsomal stability
Type: in vitro ADME
Conditions: rat microsomes, RTV −
So I've got a bunch of molecules here, and I need their Microsomal CLint Rat values.
Numbers only, in μL min^-1 mg^1.

Below, 3 molecules whose answers are already recorded.
>>> print(df.to_string())
                                   molecule           readoutname      resultunit  assayresult
0  CCC(CC)CN(C[C@@H](O)[C@H](Cc1ccccc1)NC(=O)O[C@H]1CO[C@H]2OCC[C@H]21)S(=O)(=O)c1ccc(CO)cc1 [11c]  Microsomal CLint Rat  μL min^-1 mg^1          907
1  CCC(CC)CN(C[C@@H](O)[C@H](Cc1ccccc1)NC(=O)O[C@H]1CO[C@H]2OCC[C@H]21)S(=O)(=O)c1ccc(OC)cc1 [11b]  Microsomal CLint Rat  μL min^-1 mg^1          150
2  CCC(CC)CN(C[C@@H](O)[C@H](Cc1ccccc1)NC(=O)O[C@H]1CO[C@H]2OCC[C@H]21)S(=O)(=O)c1ccc2c(c1)OCO2 [11d]  Microsomal CLint Rat  μL min^-1 mg^1          712

Record CC[C@H](C)CN(C[C@@H](O)[C@H](Cc1ccccc1)NC(=O)O[C@H]1CO[C@H]2OCC[C@H]21)S(=O)(=O)c1ccc(CO)cc1 [10c] , field Microsomal CLint Rat: 664
